target: DRB1*07:01; conditions: modification not given
value_kind: IC50 (nM)
# output: bare number, implied unit nM

IN: # return recorded IC50 for input ASQSIIAYTMSLGAE [… (position 688)]
OUT: 124

Entry source: patent US20220033460A1
